# system-under-test: Cytochrome P450 2D6 (Homo sapiens) (UniProt P10635)
# Sequence (P10635 whole entry, looked up): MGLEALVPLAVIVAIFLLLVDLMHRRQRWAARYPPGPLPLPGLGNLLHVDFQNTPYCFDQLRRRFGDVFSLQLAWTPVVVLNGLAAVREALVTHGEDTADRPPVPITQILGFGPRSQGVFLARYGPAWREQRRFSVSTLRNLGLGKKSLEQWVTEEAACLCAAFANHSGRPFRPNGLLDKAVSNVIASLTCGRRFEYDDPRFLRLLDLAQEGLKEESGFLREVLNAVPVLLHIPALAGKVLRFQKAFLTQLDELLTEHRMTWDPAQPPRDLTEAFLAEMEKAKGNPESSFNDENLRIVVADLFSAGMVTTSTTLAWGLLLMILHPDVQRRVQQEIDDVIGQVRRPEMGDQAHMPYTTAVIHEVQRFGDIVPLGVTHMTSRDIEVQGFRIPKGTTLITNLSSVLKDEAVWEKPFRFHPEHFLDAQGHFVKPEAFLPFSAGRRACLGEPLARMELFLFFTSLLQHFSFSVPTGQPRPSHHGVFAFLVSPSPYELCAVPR
# protocol-details: Cytochrome P450 family 2 subfamily D member 6 (CYP2D6) small molecule antagonists: luciferase biochemical (cell-free) qHTS assay (AID 1645840); note: nearly all actives have a fitted effect of over 55% in size
# measurement-context: P450-Glo CYP2D6 enzyme, luciferin luminescence, 1 h; series mostly up to 57.4 µM
# Text: National Center for Advancing Translational Sciences [NCATS] Assay Overview: Cytochrome P450 (CYP) enzymes are membrane-bound hemeproteins that play a key role in metabolism of drugs and xenobiotics. Assaying the effect of chemicals on CYP isozymes is useful to minimize the adverse drug reactions and toxicities in drug development process. […] The luciferin products formed are detected with a luciferin detection reagent, and the amount of light produced is proportional to CYP activity. […]
Results filed as inconclusive are left out. The source made the active and inactive calls. Calls come from the whole dose curve; as a rule, active = well fitted inhibition curve with a large enough effect in the repeat runs; inconclusive = weak or mixed curves; inactive = flat fitted curve, though single readings scatter.
Returns: one label drawn from active, inactive

compound	system-under-test	cat
C=CC(=O)Nc1cccc(CN2C(=O)N(c3c(Cl)c(OC)cc(OC)c3Cl)Cc3cnc(NCCCCN(CC)CC)nc32)c1	Cytochrome P450 2D6 (Homo sapiens) (UniProt P10635)	active
CC1(c2nc3c(C(N)=O)cccc3[nH]2)CCCN1 (centres undefined)	Cytochrome P450 2D6 (Homo sapiens) (UniProt P10635)	inactive
O=S(=O)(NCC1CC1)c1ccc(Nc2nccc(N3CCCc4cc(O)ccc43)n2)cc1	Cytochrome P450 2D6 (Homo sapiens) (UniProt P10635)	active
Cc1cccc(C)c1-n1c(=O)c2cnc(Nc3ccc(N4CCN(C)CC4)cc3)nc2n2c3ccccc3nc12	Cytochrome P450 2D6 (Homo sapiens) (UniProt P10635)	inactive
COc1ccc(N2CCOCC2)c2sc(NC(=O)N3CCC(C)(O)CC3)nc12	Cytochrome P450 2D6 (Homo sapiens) (UniProt P10635)	active
CC1CCN(C(=O)CC#N)CC1N(C)c1ncnc2[nH]ccc12 (centres undefined)	Cytochrome P450 2D6 (Homo sapiens) (UniProt P10635)	inactive
CSc1ccc(C(=O)N[C@@H]2CCCC[C@@H]2NC(=O)CNC(=O)c2cc(C(F)(F)F)ccc2NC(=O)NC(C)C)cc1	Cytochrome P450 2D6 (Homo sapiens) (UniProt P10635)	active
Cc1c[nH]c2nccc(Oc3c(F)cc(Nc4cc(Cl)nc(N)n4)cc3F)c12	Cytochrome P450 2D6 (Homo sapiens) (UniProt P10635)	active

Let's switch to this compound now.
Q: Please share the test call associated with "C=CC(=O)Nc1cc(Nc2nccc(-c3c[nH]c4ccccc34)n2)c(OC)cc1N(C)CCN(C)C" .
Ans: inactive
